# System: Mycoplasmoides pneumoniae
# ASSAY_SUMMARY: Antimicrobial activity against macrolide-resistant Mycoplasma pneumoniae harboring A2064G transition in domain V of 23S rRNA isolated from pediatric patients with community-acquired pneumonia after 10 to 14 days by microdilution method
# Type: functional
QUANTITY: MIC90

INSERT INTO results (compound, assay_result) VALUES
  ('C[C@H]1COc2c(N3CCN(C)CC3)c(F)cc3c(=O)c(C(=O)O)cn1c23.C[C@H]1COc2c(N3CCN(C)CC3)c(F)cc3c(=O)c(C(=O)O)cn1c23.O [LEVOFLOXACIN]', '1 µg/mL'),
  ('CN(C)c1ccc(O)c2c1C[C@H]1C[C@H]3[C@H](N(C)C)C(O)=C(C(N)=O)C(=O)[C@@]3(O)C(O)=C1C2=O [MINOCYCLINE]', '1 µg/mL'),
  ('CC[C@H]1OC(=O)[C@H](C)[C@@H](O[C@H]2C[C@@](C)(OC)[C@@H](O)[C@H](C)O2)[C@H](C)[C@@H](O[C@@H]2O[C@H](C)C[C@H](N(C)C)[C@H]2O)[C@](C)(O)C[C@@H](C)CN(C)[C@H](C)[C@@H](O)[C@]1(C)O [AZITHROMYCIN]', '64 µg/mL'),
  ('CCCC(=O)O[C@H]1[C@H](C)O[C@@H](O[C@H]2[C@H](N(C)C)[C@@H](O)[C@H](O[C@H]3[C@@H](CC=O)C[C@@H](C)[C@@H](O)/C=C/C=C/C[C@@H](C)OC(=O)C[C@@H](O)[C@@H]3OC)O[C@@H]2C)C[C@@]1(C)OC(=O)CC [ROKITAMYCIN]', '16 µg/mL'),
  ('CO[C@@H]1[C@@H](O[C@@H]2O[C@H](C)[C@@H](O[C@H]3C[C@@](C)(O)[C@@H](OC(=O)CC(C)C)[C@H](C)O3)[C@H](N(C)C)[C@H]2O)[C@@H](CC=O)C[C@@H](C)[C@@H](O)/C=C/C=C/C[C@@H](C)OC(=O)C[C@H]1OC(C)=O [JOSAMYCIN]', '> 64 µg/mL'),
  ('CC[C@H]1OC(=O)[C@H](C)[C@@H](O[C@H]2C[C@@](C)(OC)[C@@H](O)[C@H](C)O2)[C@H](C)[C@@H](O[C@@H]2O[C@H](C)C[C@H](N(C)C)[C@H]2O)[C@](C)(OC)C[C@@H](C)C(=O)[C@H](C)[C@@H](O)[C@]1(C)O [CLARITHROMYCIN]', '64 µg/mL');

# MIC90 lookup, item CC[C@H]1OC(=O)[C@H](C)C(=O)[C@H](C)[C@@H](O[C@@H]2O[C@H](C)C[C@H](N(C)C)[C@H]2O)[C@](C)(OC)C[C@@H](C)C(=O)[C@H](C)[C@H]2N(CCCCn3cnc(-c4cccnc4)c3)C(=O)O[C@]12C [TELITHROMYCIN] 16 µg/mL

CC[C@H]1OC(=O)[C@H](C)[C@@H](O[C@H]2C[C@@](C)(OC)[C@@H](O)[C@H](C)O2)[C@H](C)[C@@H](O[C@@H]2O[C@H](C)C[C@H](N(C)C)[C@H]2O)[C@](C)(O)C[C@@H](C)C(=O)[C@H](C)[C@@H](O)[C@]1(C)O [ERYTHROMYCIN] ? > 64 µg/mL

###

# Tested on: Mycoplasmoides pneumoniae
# ASSAY_SUMMARY: Antimicrobial activity against macrolide-resistant Mycoplasma pneumoniae harboring A2063G transition in domain V of 23S rRNA isolated from pediatric patients with community-acquired pneumonia after 10 to 14 days by microdilution method
# Assay type: functional
Below is a list of entries, each paired with its recorded MIC90 value.
The reply should be a number in µg/mL, with the unit left off.

Below are worked cases with known answers.
INSERT INTO measurements (structure_as_smiles, assay_result) VALUES
  ('C[C@H]1COc2c(N3CCN(C)CC3)c(F)cc3c(=O)c(C(=O)O)cn1c23.C[C@H]1COc2c(N3CCN(C)CC3)c(F)cc3c(=O)c(C(=O)O)cn1c23.O', 1),
  ('CO[C@@H]1[C@@H](O[C@@H]2O[C@H](C)[C@@H](O[C@H]3C[C@@](C)(O)[C@@H](OC(=O)CC(C)C)[C@H](C)O3)[C@H](N(C)C)[C@H]2O)[C@@H](CC=O)C[C@@H](C)[C@@H](O)/C=C/C=C/C[C@@H](C)OC(=O)C[C@H]1OC(C)=O', 16),
  ('CC[C@H]1OC(=O)[C@H](C)C(=O)[C@H](C)[C@@H](O[C@@H]2O[C@H](C)C[C@H](N(C)C)[C@H]2O)[C@](C)(OC)C[C@@H](C)C(=O)[C@H](C)[C@H]2N(CCCCn3cnc(-c4cccnc4)c3)C(=O)O[C@]12C', 64);

Attention now shifts to the item below.
For Mycoplasmoides pneumoniae, provide MIC90 of `CCCC(=O)O[C@H]1[C@H](C)O[C@@H](O[C@H]2[C@H](N(C)C)[C@@H](O)[C@H](O[C@H]3[C@@H](CC=O)C[C@@H](C)[C@@H](O)/C=C/C=C/C[C@@H](C)OC(=O)C[C@@H](O)[C@@H]3OC)O[C@@H]2C)C[C@@]1(C)OC(=O)CC` please. 0.25

###

The following molecules are listed with their measured MIC50 values.
# System: Mycoplasmoides pneumoniae
# ASSAY_SUMMARY: Antimicrobial activity against macrolide-resistant Mycoplasma pneumoniae harboring A2064G transition in domain V of 23S rRNA isolated from pediatric patients with community-acquired pneumonia after 10 to 14 days by microdilution method
# Assay type: functional

INSERT INTO assay_data (structure_as_smiles, quantity, assay_result) VALUES
  ('CCCC(=O)O[C@H]1[C@H](C)O[C@@H](O[C@H]2[C@H](N(C)C)[C@@H](O)[C@H](O[C@H]3[C@@H](CC=O)C[C@@H](C)[C@@H](O)/C=C/C=C/C[C@@H](C)OC(=O)C[C@@H](O)[C@@H]3OC)O[C@@H]2C)C[C@@]1(C)OC(=O)CC', 'MIC50', '16 µg/mL'),
  ('C[C@H]1COc2c(N3CCN(C)CC3)c(F)cc3c(=O)c(C(=O)O)cn1c23.C[C@H]1COc2c(N3CCN(C)CC3)c(F)cc3c(=O)c(C(=O)O)cn1c23.O', 'MIC50', '1 µg/mL'),
  ('CC[C@H]1OC(=O)[C@H](C)[C@@H](O[C@H]2C[C@@](C)(OC)[C@@H](O)[C@H](C)O2)[C@H](C)[C@@H](O[C@@H]2O[C@H](C)C[C@H](N(C)C)[C@H]2O)[C@](C)(O)C[C@@H](C)C(=O)[C@H](C)[C@@H](O)[C@]1(C)O', 'MIC50', '> 64 µg/mL'),
  ('CC[C@H]1OC(=O)[C@H](C)[C@@H](O[C@H]2C[C@@](C)(OC)[C@@H](O)[C@H](C)O2)[C@H](C)[C@@H](O[C@@H]2O[C@H](C)C[C@H](N(C)C)[C@H]2O)[C@](C)(OC)C[C@@H](C)C(=O)[C@H](C)[C@@H](O)[C@]1(C)O', 'MIC50', '64 µg/mL'),
  ('CO[C@@H]1[C@@H](O[C@@H]2O[C@H](C)[C@@H](O[C@H]3C[C@@](C)(O)[C@@H](OC(=O)CC(C)C)[C@H](C)O3)[C@H](N(C)C)[C@H]2O)[C@@H](CC=O)C[C@@H](C)[C@@H](O)/C=C/C=C/C[C@@H](C)OC(=O)C[C@H]1OC(C)=O', 'MIC50', '64 µg/mL');

Next molecule, please.
Any idea what its MIC50 is? The molecule is `CN(C)c1ccc(O)c2c1C[C@H]1C[C@H]3[C@H](N(C)C)C(O)=C(C(N)=O)C(=O)[C@@]3(O)C(O)=C1C2=O` 0.5 µg/mL

###

# Test system: Mycoplasmoides pneumoniae
# ASSAY_SUMMARY: Antimicrobial activity against macrolide-resistant Mycoplasma pneumoniae harboring A2064G transition in domain V of 23S rRNA isolated from pediatric patients with community-acquired pneumonia after 10 to 14 days by microdilution method
# Format: functional
QUANTITY: MIC50 (µg/mL)
All answers are understood in µg/mL, so give the number only.

INSERT INTO measurements (compound, experimental_system, quantity, assay_result) VALUES
  ('CC[C@H]1OC(=O)[C@H](C)C(=O)[C@H](C)[C@@H](O[C@@H]2O[C@H](C)C[C@H](N(C)C)[C@H]2O)[C@](C)(OC)C[C@@H](C)C(=O)[C@H](C)[C@H]2N(CCCCn3cnc(-c4cccnc4)c3)C(=O)O[C@]12C [TELITHROMYCIN]', 'Mycoplasmoides pneumoniae', 'MIC50', 4);

Write down the reported MIC50 of CC[C@H]1OC(=O)[C@H](C)[C@@H](O[C@H]2C[C@@](C)(OC)[C@@H](O)[C@H](C)O2)[C@H](C)[C@@H](O[C@@H]2O[C@H](C)C[C@H](N(C)C)[C@H]2O)[C@](C)(O)C[C@@H](C)CN(C)[C@H](C)[C@@H](O)[C@]1(C)O [AZITHROMYCIN] , test system: Mycoplasmoides pneumoniae. 32
